# System: GPX1 (Homo sapiens, UniProt P07203)
# Construct: made in house; host or cells: E. coli
# Measurement description: GR-coupled GPX1 activity assay (NADPH fluorescence, CHP substrate)
# Assay type: biochemical
# Run conditions: IC50 of resulting CRC, Table 2; read-out: IC50 GPx1
Structures can show the parent of a compound that is named as a salt.
# IC50 per entry

{"Compound": "O=C(N[C@H]1CCS[C@H]2CCC[C@@H](C(=O)O)N2C1=O)[C@@H](S)Cc1ccccc1 [Omapatrilat]", "IC50": "5.7 µM"}
{"Compound": "Cc1c(N(C)CS(=O)(=O)O)c(=O)n(-c2ccccc2)n1C [Metamizole (dipyrone)]", "IC50": "8.1 µM"}
{"Compound": "O=C(NNCS(=O)(=O)O)c1ccncc1 [Isoniazid sodium methanesulfonate]", "IC50": "5.2 µM"}
{"Compound": "CO[C@@]1(NC(=O)Cc2cccs2)C(=O)N2C(C(=O)O)=C(COC(N)=O)CS[C@@H]21 [Cefoxitin sodium salt]", "IC50": "9.3 µM"}

---

Items are presented alongside their recorded Tm GPX1 (nanoDSF).
# System: GPX1 (Homo sapiens, UniProt P07203)
# Construct: made in house; host or cells: E. coli
# Sequence (P07203 1-203): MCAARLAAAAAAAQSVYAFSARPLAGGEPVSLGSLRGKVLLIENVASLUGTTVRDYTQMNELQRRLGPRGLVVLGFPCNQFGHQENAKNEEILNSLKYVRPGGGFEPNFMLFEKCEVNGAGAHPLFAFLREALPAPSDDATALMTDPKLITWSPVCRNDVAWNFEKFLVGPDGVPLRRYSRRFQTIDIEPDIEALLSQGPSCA
# Measurement description: nanoDSF thermal stabilization, GPX1
# Type: binding
# Run conditions: 100 μM; DMSO control Tm 42.5°C; first or only inflection point
Where a name gives a salt, the structure may show the parent alone.

{"Compound": "N[C@@H](CCC(=O)N[C@@H](CS)C(=O)NCC(=O)O)C(=O)O [Glutathione]", "Tm GPX1 (nanoDSF) [°C]": 46.1}
{"Compound": "Nc1nc(/C(=C/CC(=O)O)C(=O)N[C@@H]2C(=O)N3C(C(=O)O)=CCS[C@H]23)cs1 [Ceftibuten]", "Tm GPX1 (nanoDSF) [°C]": 42.3}
{"Compound": "CO[C@@]1(NC(=O)Cc2cccs2)C(=O)N2C(C(=O)O)=C(COC(N)=O)CS[C@@H]21 [Cefoxitin sodium salt]", "Tm GPX1 (nanoDSF) [°C]": 42.9}
{"Compound": "COc1ccc2[nH]c([S+]([O-])Cc3ncc(C)c(OC)c3C)nc2n1 (stereo not drawn) [Tenatoprazole]", "Tm GPX1 (nanoDSF) [°C]": 50.0}
{"Compound": "O=C(O)C(S)C(S)C(=O)O (stereo not drawn) [2,3-Dimercaptosuccinic acid]", "Tm GPX1 (nanoDSF) [°C]": 41.6}
{"Compound": "O=C(N[C@H]1CCS[C@H]2CCC[C@@H](C(=O)O)N2C1=O)[C@@H](S)Cc1ccccc1 [Omapatrilat]", "Tm GPX1 (nanoDSF) [°C]": 48.8}

---

# System: GPX4 (Homo sapiens, UniProt P36969)
# Construct: made in house; host or cells: E. coli
# Sequence (P36969 28-197): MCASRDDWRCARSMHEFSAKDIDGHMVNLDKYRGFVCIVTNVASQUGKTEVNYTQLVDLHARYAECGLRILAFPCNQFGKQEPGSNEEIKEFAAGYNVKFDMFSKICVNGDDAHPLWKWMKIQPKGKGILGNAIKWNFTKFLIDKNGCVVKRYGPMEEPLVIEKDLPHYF
# Measurement description: nanoDSF thermal stabilization, GPX4
# Type: binding
# Run conditions: 100 μM small molecule vs DMSO control; first or only inflection point
# Description: Thermal stabilization of enzyme ± DMSO or ± compound was carried out in a Prometheus NT.48 instrument (NanoTemper Technologies) with an excitation wavelength of 280 nm. Intrinsic fluorescence at 330 nm and 350 nm was monitored while heating. […] The ratio of the recorded emission intensities (350nm/330 nm) were plotted as a function of temperature. This ratio and first derivatives were calculated using the NanoTemper software and were plotted using GraphPad Prism.
Measurement label: GSH Binding (ΔTm) GPx4; shift in nanoDSF melting temperature

{"Compound": "CC1(C)CCC(c2ccc(Cl)cc2)=C(CN2CCN(c3ccc(C(=O)NS(=O)(=O)c4ccc(N[C@H](CCN5CCOCC5)CSc5ccccc5)c(S(=O)(=O)C(F)(F)F)c4)cc3)CC2)C1 [Navitoclax (ABT-263), Navitoclax]", "System": "GPX4 (Homo sapiens, UniProt P36969)", "Measurement": "+3.2 °C"}
{"Compound": "CCCCCCO[C@@H](C)c1cccc(-c2csc(NC(=O)c3cc(Cl)c(/C=C(\\C)C(=O)O)c(Cl)c3)n2)c1OC [Lusutrombopag]", "System": "GPX4 (Homo sapiens, UniProt P36969)", "Measurement": "+4.1 °C"}
{"Compound": "CC1(C)CCC(CN2CCN(c3ccc(C(=O)NS(=O)(=O)c4ccc(NCC5CCOCC5)c([N+](=O)[O-])c4)c(Oc4cnc5[nH]ccc5c4)c3)CC2)=C(c2ccc(Cl)cc2)C1 [Venetoclax (ABT-199), Venetoclax]", "System": "GPX4 (Homo sapiens, UniProt P36969)", "Measurement": "+4.1 °C"}

These entries and their values trace back to paper PMC10220285.
